# Assay system: Histone deacetylase 1 (Homo sapiens, UniProt Q13547)
# Sequence (Q13547 whole entry): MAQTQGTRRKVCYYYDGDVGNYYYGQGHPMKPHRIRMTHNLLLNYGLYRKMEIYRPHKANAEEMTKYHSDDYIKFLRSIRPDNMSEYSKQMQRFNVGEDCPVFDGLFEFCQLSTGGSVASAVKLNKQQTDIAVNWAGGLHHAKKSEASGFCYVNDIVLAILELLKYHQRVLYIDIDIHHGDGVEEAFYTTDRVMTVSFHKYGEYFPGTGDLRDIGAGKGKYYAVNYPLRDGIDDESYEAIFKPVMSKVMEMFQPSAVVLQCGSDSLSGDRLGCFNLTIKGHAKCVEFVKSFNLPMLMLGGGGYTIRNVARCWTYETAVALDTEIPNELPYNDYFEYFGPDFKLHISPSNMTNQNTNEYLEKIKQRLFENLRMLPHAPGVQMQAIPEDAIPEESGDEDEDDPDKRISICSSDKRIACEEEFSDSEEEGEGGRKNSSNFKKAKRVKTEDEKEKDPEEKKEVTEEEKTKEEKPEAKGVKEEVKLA
# Assay protocol: Inhibition of recombinant human HDAC1 using Ac-Val-Gly-(NAc)Lys-AMC as substrate incubated for 30 mins by fluorescence based assay
Metric: IC50 (nM)

Known IC50 results, listed for orientation:
| Chemical string | Metric | Value |
| --- | --- | --- |
| O=C(CCCOc1ccc(-c2sc3cc(O)ccc3c2C(=O)c2ccc(OCCN3CCCCC3)cc2)cc1)NO | IC50 | 5990 |
| O=C(CCCCCc1ccc(-c2sc3cc(O)ccc3c2C(=O)c2ccc(OCCN3CCCCC3)cc2)cc1)NO | IC50 | 12 |
| O=C(CCCCCOc1ccc(-c2sc3cc(O)ccc3c2C(=O)c2ccc(OCCN3CCCCC3)cc2)cc1)NO | IC50 | 132 |
| O=C(CCc1ccc(-c2sc3cc(O)ccc3c2C(=O)c2ccc(OCCN3CCCCC3)cc2)cc1)NO | IC50 | 464 |
| O=C(CCCCCCc1ccc(-c2sc3cc(O)ccc3c2C(=O)c2ccc(OCCN3CCCCC3)cc2)cc1)NO | IC50 | 344 |

a: O=C(CCCCOc1ccc(-c2sc3cc(O)ccc3c2C(=O)c2ccc(OCCN3CCCCC3)cc2)cc1)NO
b: O=C(CCCCc1ccc(-c2sc3cc(O)ccc3c2C(=O)c2ccc(OCCN3CCCCC3)cc2)cc1)NO
Problem: Hello, I am sorting some records. Could you say if a or b has the smaller IC50 value? Choose, then provide that item's label.
Result: b
(b: 257 nM, a: 389 nM)

###

# Assay system: Protein deacetylase HDAC6 (Homo sapiens, UniProt Q9UBN7)
# Sequence (Q9UBN7 whole entry): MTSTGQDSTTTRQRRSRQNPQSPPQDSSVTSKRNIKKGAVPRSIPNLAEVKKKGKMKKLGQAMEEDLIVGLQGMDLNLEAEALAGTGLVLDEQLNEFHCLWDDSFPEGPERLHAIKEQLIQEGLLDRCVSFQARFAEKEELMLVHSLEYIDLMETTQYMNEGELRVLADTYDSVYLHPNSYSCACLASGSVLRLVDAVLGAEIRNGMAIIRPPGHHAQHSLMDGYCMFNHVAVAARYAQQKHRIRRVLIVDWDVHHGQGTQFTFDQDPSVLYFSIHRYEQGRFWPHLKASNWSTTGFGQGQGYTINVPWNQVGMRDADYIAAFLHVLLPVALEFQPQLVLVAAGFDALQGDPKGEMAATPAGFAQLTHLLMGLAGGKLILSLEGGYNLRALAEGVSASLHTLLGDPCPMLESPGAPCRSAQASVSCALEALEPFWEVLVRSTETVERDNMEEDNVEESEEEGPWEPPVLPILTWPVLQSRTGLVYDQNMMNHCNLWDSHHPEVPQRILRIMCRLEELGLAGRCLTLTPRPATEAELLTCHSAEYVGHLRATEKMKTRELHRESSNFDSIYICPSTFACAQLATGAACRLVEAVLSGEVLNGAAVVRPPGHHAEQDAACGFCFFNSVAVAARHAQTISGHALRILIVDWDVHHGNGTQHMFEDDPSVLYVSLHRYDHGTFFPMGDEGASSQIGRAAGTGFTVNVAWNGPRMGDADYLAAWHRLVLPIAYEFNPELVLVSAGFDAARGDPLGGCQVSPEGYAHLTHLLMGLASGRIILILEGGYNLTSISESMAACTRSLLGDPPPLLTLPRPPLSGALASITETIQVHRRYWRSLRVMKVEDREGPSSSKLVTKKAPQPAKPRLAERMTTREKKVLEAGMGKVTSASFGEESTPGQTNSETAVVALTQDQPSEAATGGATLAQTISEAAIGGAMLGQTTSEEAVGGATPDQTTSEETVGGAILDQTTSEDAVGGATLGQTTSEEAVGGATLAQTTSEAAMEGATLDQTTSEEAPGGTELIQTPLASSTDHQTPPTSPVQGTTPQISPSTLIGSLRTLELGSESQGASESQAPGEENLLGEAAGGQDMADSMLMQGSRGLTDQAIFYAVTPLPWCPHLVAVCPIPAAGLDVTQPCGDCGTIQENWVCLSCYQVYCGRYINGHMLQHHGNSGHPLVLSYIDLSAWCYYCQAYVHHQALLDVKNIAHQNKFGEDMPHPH
# Assay protocol: Inhibition of recombinant human HDAC6 using Ac-Val-Gly-(NAc)Lys-AMC as substrate incubated for 30 mins by fluorescence based assay
Metric: IC50 (µM)

Known IC50 results, listed for orientation:
| Chemical string | IC50 / µM |
| --- | --- |
| O=C(CCCCc1ccc(-c2sc3cc(O)ccc3c2C(=O)c2ccc(OCCN3CCCCC3)cc2)cc1)NO | 0.221 |
| O=C(CCCCCc1ccc(-c2sc3cc(O)ccc3c2C(=O)c2ccc(OCCN3CCCCC3)cc2)cc1)NO | 0.297 |
| O=C(CCCOc1ccc(-c2sc3cc(O)ccc3c2C(=O)c2ccc(OCCN3CCCCC3)cc2)cc1)NO | 0.091 |

P: O=C(CCCCCOc1ccc(-c2sc3cc(O)ccc3c2C(=O)c2ccc(OCCN3CCCCC3)cc2)cc1)NO
Q: O=C(CCCCOc1ccc(-c2sc3cc(O)ccc3c2C(=O)c2ccc(OCCN3CCCCC3)cc2)cc1)NO
R: O=C(CCc1ccc(-c2sc3cc(O)ccc3c2C(=O)c2ccc(OCCN3CCCCC3)cc2)cc1)NO
S: O=C(CCCCCCc1ccc(-c2sc3cc(O)ccc3c2C(=O)c2ccc(OCCN3CCCCC3)cc2)cc1)NO
Problem: Sort the 4 molecules by IC50; largest first, smallest last. Please reply with the labels ordered as requested. Many thanks.
Result: S, R, Q, P
(S: 0.333 µM, R: 0.202 µM, Q: 0.123 µM, P: 0.021 µM)
